Quick reference: soluble fraction (log2) of the listed items.
test: soluble fraction after stress (log2 fold change); higher = more stays soluble; pooled small domains, quantitative proteomics; conditions: stress: 75 degC;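 further: 20 min heating vs room temperature control held 20 min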
Give the value as a plain number.

Example entries begin here.
HMDSIGTQIRKLREEAEMPLRKLSALLDIDQSTLSKIERDERRANTQMIEQIAKIFKVNKEQLLVA; -0.77
HMTLGENLQNLRKEAGLSQEQVAQQLFVSRQTVSKWENNLAEPGVENLKALARLYGVTLDRLVGM; -0.223

Just so you know, measured soluble fraction (log2) for `HMADVSPEAQHKMVEAFAQFGVTKEHIEQRIQRRLDAIQPAQMVTLKRIFASLRDGMSTPAEWFE` came out at -0.639

# sequence `HMYKDVVVPNTVGDSEEKAYQTLSALGLVVNITYDEDASKSDRVVTSQNPTNKTIKEGESVNIVVNKQP` ; its soluble fraction (log2) = 0.573

Item: `HMRARTQYWPFVEEKAAELKLPLHLVNVEPLFGEQKVVVHYTANGRIDFRELVHLLARRFHARIEMR` | soluble fraction (log2): 0.0673

Lab note: measured soluble fraction (log2) of `HMEPEVEITYFKPDERKAGGAYVTVTGAVIKVDDFERLITMQDGTKIPMDDILSIDGELFLS` was -0.502

Please fill in: soluble fraction (log2) reported for `HMPEEGPSEDGNSFTAKFKLGSDVQGAMEQADAAAKAGLQDAGKGTGQITSRAQVGGYIYSTATA` = 0.142

Briefly, soluble fraction (log2) measured for `HMNQADNFNSLTKREKDVLLLVTQGESNKSIADKLVLSEVTVKSHLNSIFKKLNVTNRTQAVLVAMQMNLV` : -1.6

* * *

assay: soluble fraction after stress (log2 fold change); higher = more stays soluble; pooled small domains, quantitative proteomics; conditions: stress: 75 degC
Items are presented alongside their recorded soluble fraction (log2).

sequence `HMFVTGTTIKKLREEKRMTQGELAQMIGVSDKAVSKWETGRGLPDISLLEPLSRALGISVAELFAGQH` , soluble fraction (log2) observed: -0.612

What the record says about `HMILEEIIGKNIARYREAAGLTQATLAEKIGISTAFVSRVERGQKKMKVETLYATAKVLNVSVDALLS` : soluble fraction (log2) is -2.61

Sure, the documented soluble fraction (log2) for `HMKSDEGEIKKIVEEIISKNASVVEDYKKGKEVALQFLVGQGMKATKGSANPELLKKIILENI` is 1.01

Value of measured soluble fraction (log2) for the entry `HMSGAKLLAPVTGTLLRYTVAEGTKVSEGQTVIMLESMKMELEINAHKAGVIHFTAAAGAQVAEGDSLAEI` : -0.945

* * *

experiment: soluble fraction after stress (log2 fold change); higher = more stays soluble; pooled small domains, quantitative proteomics; conditions: stress: 75 degC
MEASURED_ATTRIBUTE: soluble fraction (log2)
Output: the number by itself.

Guide cases for soluble fraction (log2), answers given:
HMSDIIVQGNRRLDTDLIITDSQIREIGTDEKSLSLAVKNLYKTGYFENVQIFKDNSVVFINVKENQ; -0.618
HMSKKMTNEEILNFLKKVLIKHGKISGFIIDEDDNGPSSSVVASRFGGLLNAYKLINYTPER; -0.906
HMTMNYFIIENNQQVGPLTLEQLVARNITSDTLVWKEGMEDWQPAWKVDELHTVLDQIRANAEQ; -0.00196
HMAGEDPANLELMRLMDEEYMEHPTKGVLGMVDFLRALGILTGPKRVRRLLRKMGIMAIYPK; 0.159
HMYSLGPKERSIVSFIANRPGSRSGQIAKSLQIPLPTIKRILNGLVENKVIARHGIGAGTNYVVEDQA; -0.711
HMAPSLSEYAYEEIKHAIERGVYPPGAKLITQEIADRLGISRTPVVAAVNRLTAEGYADAVPQHGIFVK; -0.073
HMAMDYEGFKKSVYALTSIDLNAYKERQMKRRIDTLIAKNKYNGYEDYTAAIKKDKALFEEFVNYLTIN; -2.05

Next sequence, please.
Short answer for `HMRNAAGGIYGWMTLHQVAETVKLTEEEVIAITNLPAGIPRDVSLKNIEGVNDEELRALLEAYLEKQ` : soluble fraction (log2) was -1.34

* * *

soluble fraction (log2) values by entry
assay: soluble fraction after stress (log2 fold change); higher = more stays soluble; pooled small domains, quantitative proteomics; settings: stress: 75 degC
Quick one: just the number, no unit, thanks!

Some sequences with known soluble fraction (log2) results, for comparison:
HMSFDNIKVGYISETAGYVKGISLADANEYAKLNPDTEFIFIDGDEKVRFLTINEVNGLTPKNLLRSDP; 0.229
HMAEEFESMTEARRLELARLVDSRGFVRVTDAAEELGVSDVTIRGDLSELERRGLLTRVHGGAMPVT; -0.00431
HMDPTIRRGELIDAASRLFLSKGYAATSVRDILDEVGNRTASPSVFYYYFKSKEEIYQAVLRRHSE; -1.51

Proceeding to the next sequence to report its soluble fraction (log2).
Per the record, `HMGKTIIQLATDYLIKNMQPKSLHDIESYVLTRKKIKKSSIGAILLSKPNIFGRTEDGLFGLRIWNNFQYT` has soluble fraction (log2) of -1.37

* * *

assay: soluble fraction after stress (log2 fold change); higher = more stays soluble; pooled small domains, quantitative proteomics; settings: stress: 75 degC
Record yes (1) whenever soluble fraction (log2) is at -0.2 or higher; record no (0) when lower.

[Q] Identify whether the reported soluble fraction (log2) of the following sequence is -0.2 or greater: `HMNPNYIKKLREKNQLTQEYLAAQIGVSRPTYAQIEQGQRGLTVTEAKKMADIFSLALDDFLAEKN`
[A] yes (1)

[Q] Could you please find out whether `HMNAQLTTQEAADLLNVSRPHLVKLLEDGELPFLRTGKHRRVRLADLLQFKNAREQASVQAMDELSRQAQ` has soluble fraction (log2) that meets -0.2 or exceeds it?
[A] yes (1)

[Q] Kindly determine if soluble fraction (log2) recorded for `HMTASSYMGMQLGRLEELLKKEVLSLSEKTELKDLISDFDKIPEVVSPKIIGRYLQLKNQHFAKINA` is above or exactly -0.2.
[A] no (0)

[Q] // inclusive: soluble fraction (log2) at least -0.2? input: `HMEIGNVIAKLRVSNGLNQREFAKKLEVSNGAVAMWETNKRQPDLEMIKKISNLFDVPTDYILGAGTFQ`
[A] no (0)

[Q] Test whether the sequence `HMKKVTMQDIANILNISRVTVWKVLNNQPGVSKQLRDQILLTAKETGYLKPGQEAEAYLEENNIYFEG` records soluble fraction (log2) of -0.2 or higher.
[A] no (0)

[Q] Decide: soluble fraction (log2) of `HMKAILHQESRSGFANATVIGGLDKFLDTNWNQLSKYIKKIETPYSDRSLEDRKIWISTILGILSTEI` >= -0.2?
[A] yes (1)

[Q] Would you say `HMKSDVVFDITDGTVKAMLKFNRSDVTILNNDGKNYYLFTANGEFTFKYQDGSGEYYEKTVYVDWLEDE` shows soluble fraction (log2) at minimum -0.2?
[A] no (0)

[Q] Textbook exercise: given the entry `HMDEPGAGYKWREDVLLRVMASHGIEESLRDDFVRHAVGFDNDDNMYLKKVEIENAAAAWVAN` , state whether its soluble fraction (log2) is greater than or equal to -0.2.
[A] no (0)

[Q] Please check the record `HMTRKQTIYEFLRRMKSQHGLDAVYSTEEIANAVGVSRANVSSDLNRLFEEQLVEKLPGWPVKYRA` and state if its soluble fraction (log2) is at or above -0.2.
[A] no (0)

[Q] Say whether `HMSSTAIQAMIRRLIDGEDPRKPLSDARLAETLKASGVPVARRTVAKYRESMSIPSSQDRLRI` shows soluble fraction (log2) of -0.2 or more.
[A] no (0)

[Q] Has `HMWAVDFVLLDKDDQRIGNAVAYRDDRTKGMDEEVYRTVPEEELYASTGIQKQIFNSIYQLMAWKK` a recorded soluble fraction (log2) greater than or equal to -0.2?
[A] yes (1)

[Q] Textbook exercise: given the entry `HMATLQLPVPKITLYPGELIRSDHLTDQRFNARALYHSAVYKSREDIVGKVARRTLLPGQPIPVNALR` , state whether its soluble fraction (log2) is greater than or equal to -0.2.
[A] no (0)

[Q] Assess whether reported soluble fraction (log2) for `HMNVAVGNSKLVGVAGERAYFVNGVGAAARTLSLQVGDALPTGEKVRRIERDGVTMTGASGDVRLSVLP` sits at -0.2 or higher.
[A] yes (1)

[Q] Record `HMRSEILNLLREKSPQPVSGQDLANHFGITRTAVWKHIQSLKKMGYGIEAYTKKGYVLVSVPN` ; criterion: soluble fraction (log2) no lower than -0.2. Met?
[A] yes (1)

* * *

The following sequences are listed with their measured soluble fraction (log2) values.
assay: soluble fraction after stress (log2 fold change); higher = more stays soluble; pooled small domains, quantitative proteomics; conditions: stress: 75 degC
No unit in the answer, only the number.

HMGRELDLNQRVYDFIHDIADEVRTDEGTFSANQMMERFLFPGDLQSVPIGRLSGGERRRLYLLSVLMVKI; -0.0184
HMSKIRSEINKFSSDADKPILEWLFERYHWASQWRFVARFSEQRYGVLSYEINRVWEPTIEGRALYDQL; -2.27
HMVDKDFKPLYASLERLDSTSIIEILDSNRIDYRIDQRSGALLVDADQIHQARLSLASAGMPA; -0.263

The value of soluble fraction (log2) measured for the sequence `HMISKAQLFSEEELTELYRATGYQLENDPEIHREQFEALQAVRAKIEYAVPDVQEKLEQEQNLGQQ` turned out to be 0.512

`HMRSDHVFTSHLARRDKYISELESLSDSARDDHIQTIKEEDEYLLKYRRTRNLFGIPLNDEMKQFEPFNY` has a reported soluble fraction (log2) of -0.228

// soluble fraction (log2) value for `HMAPQAETLLRQVMALPSKDRAVLYLHYYEGFSTREVGDMLHISQSAVTTRLLRARKKLKEIL` : -0.122

The recorded soluble fraction (log2) for `HMASATGVVTAASLNVRSGAGTNYSVVNTLAKGTKVTVLNTADGWYEIEATVNNEKITGYVSATYIAMD` is -0.538

Recorded soluble fraction (log2) (sequence `HMHTPSGALLSAIEKEWGSFDNFKKEFTTAATSLFGSGWVWLAKDKKGKLYILSENNAGNPITKGYTPILG` ): -0.359

The recorded soluble fraction (log2) for `HMSQKVQEDFLGDIRKNEIAVTVFLINGVKLQGVITWFDDASILLRRDGHTQLIYKHAVSTIMPGVAVDI` is -0.582

The sequence identified as `HMEAEMLYQVKVKITNLVIRSGAGAIYPIVKRYASGVLPIYEEKNGYGKIAVGQWISLSPEFVERVD` registered its soluble fraction (log2) at -3.13

Record `HMTSLAEQAYRHIRDKLSNGAFVPGEQLVNRVLATEIGVSVIPVREAINRLATEGLVKHVPGSGAFVRQ` . Reported soluble fraction (log2): -0.0622

Sample `HMQDREIHIHAGREVLEKELSRLSLHLKNTNLQEYAARFNVKTAEDILAGIGAGDIRPAHVVNLIADKL` ; soluble fraction (log2) observed: -0.0928

soluble fraction (log2) recorded for this sequence, `HMDSIDIDAETKSLGPNAPQIIKGIKEWGQGLVAKGVWSDQDFEEFKVFAATANGINALNKVRKFY` , is -0.037
